# EXPERIMENT_DESCRIPTION: Cytotoxicity (CC50) in MRC-5 cells
# Type: cell-based
# CONDITION_SET: human, cell line MRC5 (HCMV row)
# Procedure: Costar 96-well tissue culture plates were seeded with 20,000 MRC-5 cells (ATCC)/well in EMEM (ATCC, Cat 30-2003) containing 2% Hyclone Standard Fetal Bovine Serum (FBS, Cat 5H30088.03) and 1% Hyclone Penicillin and Streptomycin (Cat SV30010). Outer wells were not used to minimize the edge-effect produced by extended incubations. Serial dilutions of test compounds were added to the cells and plates were incubated for 7 days at 37° C. in 5% CO2. […]
ASSAY_READOUT: CC50 at 7 days (µM)
Please state the figure in µM; there is no need to write the unit.

Summary for this compound, CC(C)CCCCCCCCCCCCCCOCCCOP(=O)(O)COC(CO)Cn1ccc(=O)[nH]c1=O (stereo not shown) : CC50 at 7 days is 50

====

# EXPERIMENT_DESCRIPTION: Cytotoxicity in MOLT-3 cells
# Format: cell-based
# CONDITION_SET: human, cell line MOLT-3 (HHV-6B row)
ASSAY_READOUT: CC50 (µM)
Please state the figure in µM; there is no need to write the unit.

Summary for this compound, CC(C)CCCCCCCCCCCCCCOCCCOP(=O)(O)COC(CO)Cn1ccc(=O)[nH]c1=O (stereo not shown) : CC50 is 8.4

====

# EXPERIMENT_DESCRIPTION: Cytotoxicity in BCBL-1 cells
# Type: cell-based
# CONDITION_SET: human, cell line BCBL-1 (HHV-8 row)
ASSAY_READOUT: CC50

Summary for this molecule, CC(C)CCCCCCCCCCCCCCOCCCOP(=O)(O)COC(CO)Cn1ccc(=O)[nH]c1=O (stereo not shown) : CC50 is > 10 µM

====

# Test system: HCMV (Strain AD169)
# EXPERIMENT_DESCRIPTION: Plaque reduction assay, HCMV AD169 in human foreskin fibroblast cells
# Type: cell-based, Human Cytomegalovirus (HCMV)
# CONDITION_SET: Human betaherpesvirus 5, AD169, Fibroblast, Virus AD169, human foreskin fibroblast cells (Table 3); read-out: EC50
ASSAY_READOUT: EC50 (nM)
Please state the figure in nM; there is no need to write the unit.

Summary for this molecule, CCCCCCCCCCCCCCCCOCCCOP(=O)(O)CO[C@H](CO)Cn1ccc(N)nc1=O [HDP-CDV, Hexadecyloxypropyl-Cidofovir, reference compound] : EC50 is 1

====

# Test system: HHV-6B
# EXPERIMENT_DESCRIPTION: DNA hybridization assay for HHV-6B in MOLT-3 cells
# Assay type: cell-based, human herpes virus 6 (HHV-6)
# CONDITION_SET: Homo sapiens; Virus HHV-6B, cell line MOLT-3
ASSAY_READOUT: EC50 (µM)
Please state the figure in µM; there is no need to write the unit.

Summary for this compound, CC(C)CCCCCCCCCCCCCCOCCCOP(=O)(O)COC(CO)Cn1ccc(=O)[nH]c1=O (stereo not shown) : EC50 is 4.7

====

# EXPERIMENT_DESCRIPTION: in vitro
# CONDITION_SET: human, HSV-1 CC50, μM
ASSAY_READOUT: CC50

Summary for this molecule, CC(C)CCCCCCCCCCCCCCOCCCOP(=O)(O)COC(CO)Cn1ccc(=O)[nH]c1=O (stereo not shown) : CC50 is > 50 µM

====

# EXPERIMENT_DESCRIPTION: CellTiter-Glo cytotoxicity assay in Akata cells
# CONDITION_SET: human
ASSAY_READOUT: CC50 (µM)
Please state the figure in µM; there is no need to write the unit.

Summary for this molecule, CC(C)CCCCCCCCCCCCCCOCCCOP(=O)(O)COC(CO)Cn1ccc(=O)[nH]c1=O (stereo not shown) [Compound 12] : CC50 is 18

====

# EXPERIMENT_DESCRIPTION: in vitro
# CONDITION_SET: dog
ASSAY_READOUT: CC50 (µM)
Please state the figure in µM; there is no need to write the unit.

Summary for this molecule, CC(C)CCCCCCCCCCCCCCOCCCOP(=O)(O)COC(CO)Cn1ccc(=O)[nH]c1=O (centres unmarked) : CC50 is 17.2

====

# EXPERIMENT_DESCRIPTION: in vitro
# CONDITION_SET: human, CC50 (μM)
ASSAY_READOUT: CC50
Reply with a number, then the unit it belongs to.

Summary for this compound, CC(C)CCCCCCCCCCCCCCOCCCOP(=O)(O)COC(CO)Cn1ccc(=O)[nH]c1=O (stereo not shown) : CC50 is 36.9 µM

====

# EXPERIMENT_DESCRIPTION: in vitro
# CONDITION_SET: human
ASSAY_READOUT: CC50

Summary for this molecule, Nc1nc2c(ncn2COCCO)c(=O)[nH]1 [Acyclovir, reference compound] : CC50 is > 100 µM

====

# EXPERIMENT_DESCRIPTION: in vitro
# CONDITION_SET: human
ASSAY_READOUT: CC50

Summary for this compound, CC(C)CCCCCCCCCCCCCCOCCCOP(=O)(O)COC(CO)Cn1ccc(=O)[nH]c1=O (stereo not shown) : CC50 is > 20 µM

====

# System: human foreskin fibroblast cells
# EXPERIMENT_DESCRIPTION: Neutral red cytotoxicity assay in human foreskin fibroblast cells
# CONDITION_SET: read-out: VACV CC50, μm, parallel to VACV assay (second printing of Table 4)
For each entry below, report its CC50 value.

The compound Nc1ccn(C[C@@H](CO)OCP(=O)(O)O)c(=O)n1 [Cidofovir, reference compound] , tested on human foreskin fibroblast cells, showed CC50 of > 300 µM

The compound CC(C)CCCCCCCCCCCCCCOCCCOP(=O)(O)COC(CO)Cn1ccc(=O)[nH]c1=O (centres unmarked) [Compound 12] , tested on human foreskin fibroblast cells, showed CC50 of > 10 µM

====

# EXPERIMENT_DESCRIPTION: in vitro
# CONDITION_SET: African green monkey
ASSAY_READOUT: CC50 (µM)
Please state the figure in µM; there is no need to write the unit.

Summary for this compound, CC(C)CCCCCCCCCCCCCCOCCCOP(=O)(O)COC(CO)Cn1ccc(=O)[nH]c1=O (stereo not shown) [Compound 12] : CC50 is 29

====

# EXPERIMENT_DESCRIPTION: Cytotoxicity in MEF cells
# Assay type: cell-based
# CONDITION_SET: mouse, cell line MEF (MCMV row)
ASSAY_READOUT: CC50
Reply with a number, then the unit it belongs to.

Summary for this compound, CC(C)CCCCCCCCCCCCCCOCCCOP(=O)(O)COC(CO)Cn1ccc(=O)[nH]c1=O (stereo not shown) [Compound 12] : CC50 is 60 µM

====

For each entry below, report its CC50 at 6 days value.
# EXPERIMENT_DESCRIPTION: Cytotoxicity (CC50) in MT4 cells
# Type: cell-based
# CONDITION_SET: human, Mean XC50 (Table 9), read-out: MT4 cytotoxicity CC50
Please state the figure in µM; there is no need to write the unit.

Summary for this compound, CC(C)CCCCCCCCCCCCCCOCCCOP(=O)(O)COC(CO)Cn1ccc(=O)[nH]c1=O (stereo not drawn) : CC50 at 6 days is 24.7

Summary for this compound, CCCCCCCCCCCCCCCCOCCCOP(=O)(O)CO[C@H](CO)Cn1ccc(N)nc1=O [HDP-CDV, Hexadecyloxypropyl-Cidofovir, reference compound] : CC50 at 6 days is 0.06

Summary for this compound, `CCCCCCCCCCCCCCCCOCCCOP(=O)(O)CO[C@H](CO)Cn1ccc(=O)[nH]c1=O` : CC50 at 6 days is 13.5

====

# Tested on: Cowpox Virus (Strain Brighton)
# EXPERIMENT_DESCRIPTION: microbe, parasite or virus in culture
# Assay type: cell-based
# CONDITION_SET: Fibroblast, read-out: CPXV EC50, μM
ASSAY_READOUT: EC50 (µM)
Please state the figure in µM; there is no need to write the unit.

The molecule Nc1ccn(C[C@@H](CO)OCP(=O)(O)O)c(=O)n1 [Cidofovir, reference compound] , tested on Cowpox Virus (Strain Brighton), showed EC50 of 30.5
